# study.target: recombinant rat VEGF164 (rat) (UniProt P16612)
# procedure.details: Biacore SPR; ratio to hVEGF165
For each entry below, report its relative value kdhVEGF165/kdmVEGF164 (rat block) value.
Field format: numeric only.

Qu. relative value kdhVEGF165/kdmVEGF164 (rat block) lookup needed for 578minmax (scFv, also called ESBA903; 903) scFv: EIVMTQSPSTLSASVGDRVIITCQASEIIHSWLAWYQQKPGKAPKLLIYLASTLASGVPSRFSGSGSGAEFTLTISSLQPDDFATYYCQNVYLASTNGANFGQGTKLTVLGGGGGSGGGGSGGGGSGGGGSEVQLVESGGGLVQPGGSLRLSCTASGFSLTDYYYMTWVRQAPGKGLEWVGFIDPDDDPYYATWAKGRFTISRDTSKNTVYLQMNSLRAEDTAVYYCAGGDHNSGWGLDIWGQGTLVTVSS , thanks.
Ans. 0.8

Qu. Similarly, 578min_max T84N_V89L (scFv, the VH entry already carries T84N and V89L; tied by name; also called Protein No. 1008) scFv: EIVMTQSPSTLSASVGDRVIITCQASEIIHSWLAWYQQKPGKAPKLLIYLASTLASGVPSRFSGSGSGAEFTLTISSLQPDDFATYYCQNVYLASTNGANFGQGTKLTVLGGGGGSGGGGSGGGGSGGGGSEVQLVESGGGLVQPGGSLRLSCTASGFSLTDYYYMTWVRQAPGKGLEWVGFIDPDDDPYYATWAKGRFTISRDNSKNTLYLQMNSLRAEDTAVYYCAGGDHNSGWGLDIWGQGTLVTVSS ?
Ans. 1.2

Qu. Similarly, 578min_max T84N_V89L_DHP (scFv) scFv: EIVMTQSPSTLSASVGDRVIITCQASEIIHSWLAWYQQKPGKAPKLLIYLASTLASGVPSRFSGSGSGAEFTLTISSLQPDDFATYYCQNVYLASTNGANFGQGTKLTVLGGGGGSGGGGSGGGGSGGGGSEVQLVESGGGSVQPGGSLRLSCTASGFSLTDYYYMTWVRQAPGKGLEWVGFIDPDDDPYYATWAKGRFTISRDNSKNTLYLQMNSLRAEDTATYYCAGGDHNSGWGLDIWGQGTTVTVSS ?
Ans. 1.6

Qu. Similarly, 578minmax FW1.4_DHP (scFv, tied by name only) scFv: EIVMTQSPSTLSASVGDRVIITCQASEIIHSWLAWYQQKPGKAPKLLIYLASTLASGVPSRFSGSGSGAEFTLTISSLQPDDFATYYCQNVYLASTNGANFGQGTKLTVLGGGGGSGGGGSGGGGSGGGGSEVQLVESGGGSVQPGGSLRLSCTASGFSLTDYYYMTWVRQAPGKGLEWVGFIDPDDDPYYATWAKGRFTISRDTSKNTVYLQMNSLRAEDTATYYCAGGDHNSGWGLDIWGQGTTVTVSS ?
Ans. 0.6
